- TESTED SYSTEM: T1, human GLP-1 receptor (human, UniProt P43220 24-463)
- T1 construct: whole, on cells; Used as crude membranes of stably transfected HEK293 cells; also called hGLP1R; hGLP-1R
- PROTOCOL SUMMARY: SPA, [125I]-GLP-1 displacement, hGLP-1R membranes
The following binders are listed with their measured Ki values.

>  <BINDER>
XXEGTFTSDYSILLDKKAQXAFIEYLIEGGPSSGAPPPS (DesTyr1; Aib2; K17((2-[2-(2-Amino-ethoxy)-ethoxy]-acetyl)2-(γ-Glu)-CO-(CH2)18-CO2H); Aib20; C-terminal NH2) [Example 107]

>  <Ki (nM)>
0.867

$$$$
>  <BINDER>
YXEGTXTSDYSIXLDEKAQXEFIEYLIEGGPSSGAPPPS (Aib2; αMeF(2F)6; αMeL13; K17((2-[2-(2-Amino-ethoxy)-ethoxy]-acetyl)2-(γ-Glu)-CO-(CH2)18-CO2H); Aib20; C-terminal NH2) [Example 118]

>  <Ki (nM)>
6.1

$$$$
>  <BINDER>
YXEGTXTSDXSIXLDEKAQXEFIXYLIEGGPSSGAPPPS (Aib2; αMeF(2F)6; 4Pal10; αMeL13; K17((2-[2-(2-Amino-ethoxy)-ethoxy]-acetyl)2-CO-(CH2)16-CO2H); Aib20; D-Glu24; C-terminal NH2) [Example 205]

>  <Ki (nM)>
3.05

$$$$
>  <BINDER>
YXEGTFTSDYSIXLDKKAQXAFIEYXIEGGPSSGAPPPS (Aib2; αMeL13; K17((2-[2-(2-Amino-ethoxy)-ethoxy]-acetyl)2-(γ-Glu)-CO-(CH2)18-CO2H); Aib20; αMeL26; C-terminal NH2) [Example 75]

>  <Ki (nM)>
24.4

$$$$
>  <BINDER>
YXEGTFTSDYSIXLDTKAQXAFIEYLIEGG (Aib2; αMeL13; K17((2-[2-(2-Amino-ethoxy)-ethoxy]-acetyl)2-(γ-Glu)-CO-(CH2)18-CO2H); Aib20; C-terminal NH2) [Example 65]

>  <Ki (nM)>
4.53

$$$$
>  <BINDER>
YXEGTXTSDLSILLDKKAQXAFIEYLIEGGPSSGAPPPS (Aib2; αMeF6; K17((2-[2-(2-Amino-ethoxy)-ethoxy]-acetyl)2-(γ-Glu)-CO-(CH2)18-CO2H); Aib20; C-terminal NH2) [Example 129]

>  <Ki (nM)>
1

$$$$
